test system: NIH3T3; experiment: Cytotoxic Profiling of Annotated Libraries Using Quantitative High-Throughput Screening (AID 1296008); conditions: Five cell lines viability, CellTiter-Glo ATP luminescence, 48-72 h; stronger effect = lower value; further: on the % scale 0 is the no-effect control and ±100 the full control effect
Inconclusive results are not listed.
Entries and their measured max response follow.
Report the value in % with no unit label.

Query string: Consider the molecule shown here: "CC[C@H](NC(=O)[C@H](CS(=O)(=O)CC1CC1)N[C@@H](c1ccc(F)cc1)C(F)(F)F)C(=O)C(=O)NC1CC1" What is its recorded max response?
Result string: -16

***
Query string: Return reported max response; argument: "OCc1ccc(O[C@@H]2O[C@H](CO)[C@@H](O)[C@H](O)[C@H]2O)cc1"
Result string: 2.54

Query string: What do you get for CC(C)=CCC/C(C)=C/CC/C(C)=C/COC1OC(COC2OCC(OC3OCC(O)C(O)C3O)C(O)C2O)C(O)C(OC2OC(C)C(OC3OC(C)C(OC4OCC(OC5OC(C)C(O)C(O)C5O)C(O)C4O)C(O)C3O)C(O)C2O)C1O (stereo not drawn) ?
Result string: -0.843

Query string: Same lookup for "Cn1ncnc1COc1nn2c(-c3cc(F)ccc3F)nnc2cc1C(C)(C)C" , please.
Result string: -2.09

Query string: Would you mind doing "Nc1nc2c(c(N3CCNCC3)n1)CCC1=C2[C@@H]2CCCC[C@@H]2O1" as well?
Result string: -4.38

Query string: Same question, "C=C[C@H]1[C@H](O[C@@H]2O[C@H](CO)[C@@H](O)[C@H](O)[C@H]2O)OC=C(C(=O)OC)[C@H]1C[C@@H]1c2cc(O)c(O)cc2CCN1C(C)=O" this time
Result string: -10.7

Query string: Param item: CC(=O)OC1CC2(C)C3=CCC4(C)C5C(O)C(O)C(C(C)C)C5(C)CCC4(C)C3CCC2C(C)(C)C1OC1OC(CO)C(O)C(O)C1O (stereo not drawn)
Result string: 4.87

Query string: Check CC(=O)CC1CCC(C(C)C(=O)OCC(O)CO)O1 (stereo not drawn) too.
Result string: -24.7
